Tested on: thyroxine rabbit antiserum
assay.name: Effect of organic solvents on antiserum-coated polypropylene tubes: residual binding of radioiodinated tracer, thyroxine antiserum
cond: tracer bound after solvent 3 hours at 50° C., tracer 45 minutes at 37° C.
quantity.kind: % Binding (%)
Number only, in %; omit the unit.

Before answering, review these 3 worked examples.
compound="CC(C)=O [Acetone, acetone]" result_value=36
compound="c1ccccc1 [Benzene, benzene]" result_value=52
compound="CCOC(C)=O [Ethyl Acetate, ethyl acetate]" result_value=41

Looking up CCOCC [Ether, ether] , I see its % Binding listed as 41
